biological target: UniProt:Q00987; test: Competitive fluorescence polarization assay for MDM2; assay type: binding; conditions: competitive FP assay, MDM2; read-out: IC50 (MDM2)
Sequence (Q00987 1-125): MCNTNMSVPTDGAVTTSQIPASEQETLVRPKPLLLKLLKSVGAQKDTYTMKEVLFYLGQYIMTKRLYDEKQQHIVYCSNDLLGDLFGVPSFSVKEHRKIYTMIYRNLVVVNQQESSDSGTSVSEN
Where a SMILES comes first, the peptide text is derived from it. Bridges are numbered along the chain shown (N, C = ends). [ ]: non-standard residue; d: D form. Phe(4-COOH) = N[C@@H](Cc1ccc(C(=O)O)cc1)C(=O)O; R8 = C=CCCCCCC[C@@](C)(N)C(=O)O; Cba = N[C@@H](CC1CCC1)C(=O)O; hLeu = CC(C)CC[C@H](N)C(=O)O; S5 = C=CCCC[C@](C)(N)C(=O)O; Nle = CCCC[C@H](N)C(=O)O; Aib = CC(C)(N)C(=O)O
Reported IC50 is given for each of the following compounds.

Worked examples follow.
CC(=O)N[C@@H](CC(C)C)C(=O)N[C@H](C(=O)N[C@@H](Cc1ccccc1)C(=O)N[C@]1(C)CCCCCCC=CCCC[C@@](C)(C(=O)N[C@@H](Cc2c[nH]cn2)C(=O)NC(C)(C)C(=O)N[C@@H](CCC(C)C)C(=O)N[C@H](C(N)=O)C(C)C)NC(=O)[C@H](CC(C)C)NC(=O)[C@H](CCC(N)=O)NC(=O)[C@H](C)NC(=O)[C@H](Cc2c[nH]c3ccccc23)NC(=O)[C@H](Cc2ccc(O)cc2)NC(=O)[C@H](C)NC1=O)[C@@H](C)O [compound 49] (Ac-LTF[R8]AYWAQL[S5]H[Aib][hLeu]V-NH2; staple 4-11) | 100 to 1000 nM
CCCC[C@H](NC(=O)[C@H](Cc1c[nH]c2ccccc12)NC(=O)[C@H](C)NC(=O)[C@]1(C)CCCC=CCCCCCC[C@@](C)(NC(=O)[C@H](Cc2ccccc2)NC(=O)[C@@H](NC(=O)[C@H](CCC(=O)O)NC(C)=O)[C@@H](C)O)C(=O)N[C@@H](C)C(=O)N[C@@H](Cc2ccc(O)cc2)C(=O)N[C@@H](Cc2c[nH]c3ccccc23)C(=O)N[C@@H](C)C(=O)N[C@@H](CCC(N)=O)C(=O)N[C@@H](CC2CCC2)C(=O)N1)C(=O)N[C@H](C)C(N)=O [compound 270] (Ac-ETF[R8]AYWAQ[Cba][S5]AW[Nle][dA]-NH2; staple 4-11) | < 10 nM
CC(=O)N[C@@H](CC(C)C)C(=O)N[C@H](C(=O)N[C@@H](Cc1ccccc1)C(=O)N[C@]1(C)CCCCCCC=CCCC[C@@](C)(C(=O)N[C@@H](CO)C(=O)N[C@@H](C)C(=O)N[C@@H](C)C(N)=O)NC(=O)[C@H](CC(C)C)NC(=O)[C@H](CCC(N)=O)NC(=O)[C@H](C)NC(=O)[C@H](Cc2c[nH]c3ccccc23)NC(=O)[C@H](Cc2ccc(C(=O)O)cc2)NC(=O)[C@H](C)NC1=O)[C@@H](C)O (single isomer, unassigned) | < 10 nM
CC[C@H](C)[C@H](NC(=O)[C@H](C)NC(=O)[C@H](C)NC(=O)[C@]1(C)CCCC=CCCCCCC[C@@](C)(NC(=O)[C@H](Cc2ccccc2)NC(=O)[C@@H](NC(=O)[C@H](CC(C)C)NC(C)=O)[C@@H](C)O)C(=O)N[C@@H](C)C(=O)N[C@@H](Cc2ccc(C(=O)O)cc2)C(=O)N[C@@H](Cc2c[nH]c3ccccc23)C(=O)N[C@@H](C)C(=O)N[C@@H](CCC(N)=O)C(=O)N[C@@H](CC2CCC2)C(=O)N1)C(=O)N[C@H](C)C(N)=O [compound 267] (Ac-LTF[R8]A[Phe(4-COOH)]WAQ[Cba][S5]AAI[dA]-NH2; staple 4-11) | 10 to 100 nM
CC(=O)N[C@@H](CCC(=O)O)C(=O)N[C@H](C(=O)N[C@@H](Cc1ccccc1)C(=O)N[C@]1(C)CCCCCCC=CCCC[C@@](C)(C(=O)N[C@@H](CO)C(=O)N[C@@H](Cc2c[nH]c3ccccc23)C(=O)N[C@@H](C)C(N)=O)NC(=O)[C@H](CC(C)C)NC(=O)[C@H](CCC(N)=O)NC(=O)[C@H](C)NC(=O)[C@H](Cc2c[nH]c3ccccc23)NC(=O)[C@H](Cc2ccc(O)cc2)NC(=O)[C@H](C(C)C)NC1=O)[C@@H](C)O [compound 128] (Ac-ETF[R8]VYWAQL[S5]SWA-NH2; staple 4-11) | < 10 nM
CC[C@H](C)[C@H](NC(=O)[C@H](C)NC(=O)[C@H](C)NC(=O)[C@]1(C)CCC/C=C/CCCCCC[C@@](C)(NC(=O)[C@H](Cc2ccccc2)NC(=O)[C@@H](NC(=O)[C@H](CC(C)C)NC(C)=O)[C@@H](C)O)C(=O)N[C@@H](C)C(=O)N[C@@H](Cc2ccc(O)cc2)C(=O)N[C@@H](Cc2c[nH]c3ccccc23)C(=O)N[C@@H](C)C(=O)N[C@@H](CCC(N)=O)C(=O)N[C@@H](CC(C)C)C(=O)N1)C(=O)N[C@H](C)C(N)=O | 10 to 100 nM
CCCC[C@H](NC(=O)[C@H](C)NC(=O)[C@H](C)NC(=O)[C@]1(C)CCC/C=C/CCCCCC[C@@](C)(NC(=O)[C@H](Cc2ccccc2)NC(=O)[C@@H](NC(=O)[C@H](CC(C)C)NC(C)=O)[C@@H](C)O)C(=O)N[C@@H](C)C(=O)N[C@@H](Cc2ccc(O)cc2)C(=O)N[C@@](C)(Cc2c[nH]c3ccccc23)C(=O)N[C@@H](C)C(=O)N[C@@H](CCC(N)=O)C(=O)N[C@@H](CC(C)C)C(=O)N1)C(=O)N[C@@H](C)C(N)=O | 100 to 1000 nM

Now for the compound whose IC50 we want.
Problem: State its IC50 for this compound: CC(=O)N[C@@H](CC(C)C)C(=O)N[C@H](C(=O)N[C@@H](Cc1cccc(Cl)c1)C(=O)N[C@]1(C)CCCCCCC=CCCC[C@@](C)(C(=O)N[C@@H](CO)C(=O)N[C@@H](C)C(=O)N[C@@H](C)C(N)=O)NC(=O)[C@H](CC(C)C)NC(=O)[C@H](CCC(N)=O)NC(=O)[C@H](C)NC(=O)[C@H](Cc2c[nH]c3ccccc23)NC(=O)[C@H](Cc2ccc(O)cc2)NC(=O)[C@H](CCC(=O)O)NC1=O)[C@@H](C)O (single isomer, unassigned)
Result: < 10 nM
